Molecular target: Nonstructural protein 3 (Zika virus, UniProt A0A024AXB9)
Sequence (A0A024AXB9 whole entry): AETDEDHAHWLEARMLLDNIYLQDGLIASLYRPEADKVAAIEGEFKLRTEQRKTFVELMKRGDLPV
Assay: Functional biochemical assay to identify treatments for viral infectious disease that targets Zika NS2B-NS3 protease. Utilizing a direct enzyme activity measurement method, reading the fluorescence intensity is used to characterize the relative potency of inhibitors as IC50.
Parameters: species or system PRVABC59
pIC50: −log10 of the molar value.
reported-property: pIC50

// sample `NCc1cccc(NC(=O)[C@@H]2CCC[C@H](OC(F)(F)F)C2)c1` , its pIC50 was < 4.00

// sample `NC(=O)N1CCc2ccc(NC(=O)c3cccc4c3CC(=O)N4)cc21` , its pIC50 was < 4.60

// sample `N[C@H]1COC[C@H]1n1cc(C(=O)Nc2cc(-c3cccnc3)ccn2)cn1` , its pIC50 was < 4.60

// sample `CC(C)Nc1nc2ccc(C(=O)Nc3ccc4cn[nH]c4n3)cc2[nH]1` , its pIC50 was < 4.00

// sample `O=C(O)c1cc2c(cc1NS(=O)(=O)c1ccc(F)cc1)CCC2` , its pIC50 was < 4.00

// sample `O=C(Nc1cc(Cl)cc(C(=O)Nc2cccc([C@H]3CNCCO3)c2)c1)OCc1ccccc1` , its pIC50 was < 4.00

// sample `O=C1Cc2c(cccc2C(=O)N[C@H]2COc3cc(Br)cnc32)N1` , its pIC50 was < 4.60

// sample `CCn1cc(-c2ccccc2N)nc(N2CC[C@@H](CO)C2)c1=O` , its pIC50 was < 4.00

// sample `OCCOc1cc(COc2cccnc2F)nc(N2CCNCC2)n1` , its pIC50 was < 4.00

// sample `Cc1ncc(COc2ccc([C@H](NC(=O)OCc3ccccc3)C(=O)Nc3cccc(CN)c3)cc2)cn1` , its pIC50 was < 4.00

----------
Molecular target: UniProt:A0A024AXB9
Assay: Functional biochemical assay to identify treatments for viral infectious disease that targets Zika NS2B-NS3 protease. Utilizing a direct enzyme activity measurement method, reading the fluorescence intensity is used to characterize the relative potency of inhibitors as IC50.
Set-up: species or system PRVABC59
pIC50: −log10 of the molar value.
Label TRUE for high-side pIC50 (at or above 5) and FALSE for low-side pIC50 (below it).

Q. For this compound, is measured pIC50 5 or higher? `Cc1ccc(C(=O)Nc2cccc(CN)c2)cc1NC(=O)Cc1ccncc1`
A. FALSE

Q. For this compound, is measured pIC50 5 or higher? `O=C(O)c1cc(OC2CCOCC2)c(F)cc1NS(=O)(=O)c1ccc(Oc2ccccc2Cl)cc1`
A. FALSE

Q. For this compound, is measured pIC50 5 or higher? `O=C(Nc1ccc2c(c1)CN[C@H]2C1CC1)c1cc(F)cc2[nH]ncc12`
A. TRUE

Q. For this compound, is measured pIC50 5 or higher? `O=C(N[C@@H](C(=O)NCc1cnccn1)c1ccc(OCc2ccccc2)cc1)OCc1ccccc1`
A. FALSE

Q. For this compound, is measured pIC50 5 or higher? `O=C(Nc1cc(Cl)cc(C(=O)NC2([C@H]3CCNC3)CC2)c1)OCc1ccccc1`
A. FALSE

Q. For this compound, is measured pIC50 5 or higher? `NCc1cccc([C@@H]2[C@H](C(=O)O)[C@H]2c2cc(N)cc(Cl)c2)c1`
A. FALSE

Q. For this compound, is measured pIC50 5 or higher? `NCc1cccc(NC(=O)c2cc(NC(=O)OCc3ccccc3)cc(Cl)c2Cl)c1`
A. FALSE

Q. For this compound, is measured pIC50 5 or higher? `O=C1Cc2c(cccc2C(=O)Nc2ccc3c(c2)[C@H](O)CCO3)N1`
A. FALSE

Q. For this compound, is measured pIC50 5 or higher? `CCc1cccc(NC(=O)[C@]2(Oc3ccc(Br)cc3)CCNC3(CC3)C2)c1`
A. FALSE

Q. For this compound, is measured pIC50 5 or higher? `CN(C(=O)c1cc(Cl)cc(NC(=O)OCc2ccccc2)c1)c1ccc(CN)cc1`
A. FALSE

Q. For this compound, is measured pIC50 5 or higher? `O=C(N[C@@H](C(=O)Nc1nc2c(s1)CNC2)c1ccc(OCc2ccccc2)cc1)OCc1ccccc1`
A. FALSE

Q. For this compound, is measured pIC50 5 or higher? `O=C1COc2cc(C(=O)Nc3ccc4c(c3)CNC4)ccc2N1`
A. TRUE

Q. For this compound, is measured pIC50 5 or higher? `O=C(Nc1ccc2c(c1)CNC2)c1cccc2c1OCO2`
A. TRUE

Q. For this compound, is measured pIC50 5 or higher? `Fc1ncccc1OCc1cc(Cl)nc(N2CCNCC2)n1`
A. FALSE

----------
Biological target: Nonstructural protein 3 (Zika virus)
Experiment: Functional biochemical assay to identify treatments for viral infectious disease that targets Zika NS2B-NS3 protease. Utilizing a direct enzyme activity measurement method, reading the fluorescence intensity is used to characterize the relative potency of inhibitors as IC50.
Parameters: species or system PRVABC59
pIC50: −log10 of the molar value.
Please go through the items and note down their pIC50.

// sample `CC(=O)Nc1cccc(CNC(=O)C2CCN(c3ccc(C=O)cc3)CC2)c1` , its pIC50 was < 4.00

// sample `CN1CCC[C@H]1COc1cccc([C@@H](NC(=O)OCc2ccccc2)C(=O)Nc2cccc(CN)c2)c1` , its pIC50 was < 4.00

// sample `N[C@H]1CCc2cc(NC(=O)c3cc(Cl)cc(NC(=O)OCc4ccccc4)c3)ccc21` , its pIC50 was 5.24

// sample `NCc1cccc(NC(=O)[C@@H](NC(=O)OCc2ccccc2)c2cccc(-c3cncnc3)c2)c1` , its pIC50 was < 4.00

// sample `O=C(O)c1cc2cccc(Cc3c[nH]c4ccc(Cl)cc34)c2[nH]1` , its pIC50 was < 4.00

// sample `CCn1ccnc(N2CC[C@@H](Cc3ccncc3)C2)c1=O` , its pIC50 was < 4.00

// sample `c1ccc2sc(C3CCN(Cc4c[nH]c5ccccc45)CC3)nc2c1` , its pIC50 was 5.00

// sample `Cc1ccc(-n2nc(C(=O)Nc3cccc(CN)c3)ccc2=O)cc1Cl` , its pIC50 was < 4.00

// sample `CCn1c(=O)c(N2CC[C@@]3(CCCN3C)C2)nc2ccccc21` , its pIC50 was < 4.00

// sample `c1ccc(-c2ncc(CN3CCC(c4nc5ccccc5s4)CC3)[nH]2)cc1` , its pIC50 was < 4.00

----------
Target: Nonstructural protein 3 (Zika virus)
Assay: Functional biochemical assay to identify treatments for viral infectious disease that targets Zika NS2B-NS3 protease. Utilizing a direct enzyme activity measurement method, reading the fluorescence intensity is used to characterize the relative potency of inhibitors as IC50.
Set-up: species or system PRVABC59
pIC50: −log10 of the molar value.
Please go through the items and note down their pIC50.

// sample `N#CC[C@H](N)c1cccc(NC(=O)c2cc(Cl)cc(NC(=O)OCc3ccccc3)c2)c1` , its pIC50 was < 4.00

// sample `NCc1cccc(S(=O)(=O)Nc2cc(Cl)cc(NC(=O)OCc3ccccc3)c2)c1` , its pIC50 was < 4.00

// sample `NCCNC(=O)c1cc(Cl)cc(NC(=O)OCc2ccccc2)c1` , its pIC50 was < 4.00

// sample `NCc1cccc(NC(=O)c2cc(Br)cnc2OCC2CC2)c1` , its pIC50 was < 4.00

// sample `CC(C)(C)OC(=O)N[C@H](C(=O)Nc1cccc(CN)c1)c1ccc(OCc2ccccc2)cc1` , its pIC50 was < 4.00

// sample `NS(=O)(=O)c1nc(C(=O)N2CCc3c(CO)cccc32)n2ccccc12` , its pIC50 was < 4.00

// sample `CCn1c(=O)c(N2CC[C@H](c3ccccc3)C2)nc2ccccc21` , its pIC50 was < 4.00

// sample `CCn1ccnc(N[C@@H](Cc2c[nH]c3ccccc23)C(N)=O)c1=O` , its pIC50 was < 4.00

// sample `CCc1cc(C(=O)Nc2cccc(-c3nnn[nH]3)c2)ccc1Cl` , its pIC50 was < 4.00

// sample `Cn1c(COc2ccc(S(=O)(=O)Nc3ccc(Cl)cc3C(=O)O)cc2)nnc1C1CC1` , its pIC50 was < 4.00

// sample `c1ccc2c(CN[C@H]3CCc4ncsc4C3)n[nH]c2c1` , its pIC50 was < 4.00

// sample `NC[C@H]1OCCc2sc(C(=O)Nc3cc(-c4cccnc4)ccn3)cc21` , its pIC50 was < 4.60

// sample `O=C(Nc1ccc2c(c1)CNC2)N1CC[C@H](CC(F)(F)F)C1` , its pIC50 was < 4.60

// sample `O=C1Cc2c(cccc2C(=O)Nc2ccc(N3CCOC3=O)nc2)N1` , its pIC50 was < 4.60

// sample `CC(C)(C)OC(=O)NCc1cccc(NC(=O)[C@@H](NC(=O)OCc2ccccc2)c2cccc(O)c2)c1` , its pIC50 was < 4.00

// sample `Cc1csc(CO[C@H]2CCN(C(=O)Nc3ccc4c(c3)CNC4)C2)n1` , its pIC50 was < 4.60

// sample `NCc1cccc(Oc2ccc(S(=O)(=O)Nc3ccc(Cl)cc3C(=O)NCC(F)(F)F)cc2)c1` , its pIC50 was < 4.00

// sample `O=Cc1ccc(N2CCC(C(=O)Nc3cccc(Br)n3)CC2)cc1` , its pIC50 was 4.61

// sample `O=C(Nc1cc(Cl)cc(C(=O)Nc2cccc(C(=O)O)c2)c1)OCc1ccccc1` , its pIC50 was 4.08

// sample `NCc1ccc(CNC(=O)c2cc(Cl)cc(NC(=O)OCc3ccccc3)c2)cc1` , its pIC50 was 4.37

// sample `O=C(Nc1ccc(Cl)cc1C(=O)O)c1ccc(Oc2ccccc2Cl)cc1` , its pIC50 was < 4.00

// sample `Cc1c(C(=O)Nc2cc(C(=O)N3CCOC[C@H](O)C3)ccn2)cc(C2CC2)n1C` , its pIC50 was < 4.60

// sample `NCc1cccc(CS(=O)(=O)c2cc(Cl)cc(NC(=O)OCc3ccccc3)c2)c1` , its pIC50 was < 4.00

// sample `NCc1cccc(NC(=O)C[C@H](NC(=O)OCc2ccccc2)c2ccc(Cl)c(F)c2)c1` , its pIC50 was 4.15

// sample `CCn1ccnc(N2CC[C@H](c3cccc(C#N)c3)C2)c1=O` , its pIC50 was < 4.00

// sample `O=C(Nc1ccc2c(c1)CNC2)c1cc(Br)cc2[nH]c([C@H]3CCCO3)nc12` , its pIC50 was 6.56

// sample `COc1ccccc1-c1ccc([C@@H](NC(=O)OCc2ccccc2)C(=O)Nc2cccc(CN)c2)cc1` , its pIC50 was 4.57

// sample `NCc1cccc(NC(=O)[C@H](NC(=O)OCc2ccccc2)C2CCN(C(=O)Cn3ccnc3)CC2)c1` , its pIC50 was < 4.00

// sample `O=C(Nc1ccc2c(c1)CNC2)c1cccc(O)c1` , its pIC50 was 5.41

// sample `O=C(Nc1cc(Cl)cc(-c2ccc3[nH]nc(C(=O)O)c3c2)c1)OCc1ccccc1` , its pIC50 was 4.75

// sample `NCc1cccc(NC(=O)[C@H]2[C@H]3CCCC[C@H]3[C@@H]2NC(=O)OCc2ccccc2)c1` , its pIC50 was 4.03

// sample `O=C1Cc2c(cccc2C(=O)Nc2cc([C@H]3CCOC3)ccn2)N1` , its pIC50 was < 4.60

// sample `OCCCCCc1nc(-c2ccc(Br)o2)no1` , its pIC50 was < 4.00
